Burkin Assay in Myoblasts, value relative to DMSO by entry:
test system: α7 integrin (LacZ reporter in α7βgal+/− myoblasts); assay: Myoblast α7+/LacZ integrin FDG assay (Burkin assay in myoblasts, 96-well); format: cell-based, mouse; settings: 20 uM; α7+/LacZ myoblasts, 96-well
A bare number is all that is needed in reply.

Worked cases, answers included:
compound	experimental_system	val
CS(=O)(=O)N(Cc1ccc(C(=O)NC2CCCC2)cc1)c1ccccc1	α7 integrin (LacZ reporter in α7βgal+/− myoblasts)	0.9936
COc1ccc(S(=O)(=O)N2CCN(C(=O)C3CCC3)CC2)cc1	α7 integrin (LacZ reporter in α7βgal+/− myoblasts)	0.8336
COc1ccc(CNC(=O)CCN2C(=O)c3ccccc3C2=O)cc1	α7 integrin (LacZ reporter in α7βgal+/− myoblasts)	0.9561
CCOc1ccc(-n2c(C)c(C(=O)O)c3cc(OC)ccc32)cc1	α7 integrin (LacZ reporter in α7βgal+/− myoblasts)	1.176
Cc1cc(NC(=O)CCC(=O)N(Cc2cccnc2)C(C(=O)NC(C)(C)C)c2ccccc2Cl)no1 (centres unmarked)	α7 integrin (LacZ reporter in α7βgal+/− myoblasts)	0.9503

Quick one: Burkin Assay in Myoblasts, value relative to DMSO of CCCCS(=O)(=O)N1CCCC(C(=O)NCCc2ccccc2)C1 (centres unmarked) ?
0.8074

Quick one: Burkin Assay in Myoblasts, value relative to DMSO of `CN(C)S(=O)(=O)c1ccc(C(=O)Nc2nc3ccccc3[nH]2)cc1` ?
0.858

Quick one: Burkin Assay in Myoblasts, value relative to DMSO of `Cc1nnc(NC(=O)CSc2nnc(CCNC(=O)c3ccccc3F)n2C)s1` ?
1.057
